Reference for the values: PubChem BioAssay AID463079

Test: nonselective Gq signaling inhibition in CHO cells – cell-based, fluorescence, Fluo-8 calcium dye, counter-screen for OX1R antagonist project, primary screen (AID 463079)
Settings: parental CHO-K1, ATP-induced calcium, Fluo-8 fluorescence; at 5.6 µM
In all, about 330,000 compounds went through this assay and about 2,000 (0.61%) were called active.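 The calls were made as follows: active = inhibition above that plate's mean sample inhibition plus 3 SD (cut at about 26% in these data); inactive = the rest.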 Many of the other results were omitted from the sample, so actives are more common in it than they were.
Labels: active, inactive

Compound	Answer label
ClC(Cl)(Cl)c1ccccc1	inactive
Cc1cccc(OP(=O)(Oc2cccc(C)c2)OC(c2ccccc2)C(F)(F)F)c1 (centres undefined)	active
CCCCCCCCCCCCn1ccc(=N)cc1	active
CC1=C(C(=O)Nc2ccccc2)S(=O)(=O)CCO1	inactive
